System: HEK-293T
Assay Protocol: Multiplex assay against HEK293T
Assay type: toxicity, cell-based
Applied Conditions: human, 12 h, 1 µM, compound concentration 1 uM, number of replicates 2
Kindly supply the reported Population Fragmented Nuclei (%) values for the records listed here.
# unit: % | format: bare number

Exam item: Answer with reported Population Fragmented Nuclei (%) of CCn1c(-c2nonc2N)nc2cncc(C(=O)N3CC[C@H](N)C3)c21.Cl
Marked response: 2

Exam item: Answer with reported Population Fragmented Nuclei (%) of Cc1c(C(=O)Nc2ccc(N3C[C@@H](C)O[C@@H](C)C3)nc2)cccc1-c1ccc(OC(F)(F)F)cc1 [SONIDEGIB]
Marked response: 3

Exam item: Answer with reported Population Fragmented Nuclei (%) of C=CC(=O)Nc1ccc2[nH]c(=O)n(C3CCN(Cc4ccc(-c5ccc6c(c5)NC(=O)CO6)cc4)CC3)c2c1 [RL2578]
Marked response: 3

====

Kindly supply the reported Population Normal (%) values for the records listed here.
Test system: U2OS
Assay Protocol: Multiplex assay against U2OS
Format: toxicity, cell-based
Applied Conditions: human, 12 h, 10 µM, compound concentration 10 uM, number of replicates 2
Kindly format the answer as number then unit.

Exam item: # return Population Normal (%) for Cc1ccc2c(c1CCC(=O)O)CC[C@@H](NS(=O)(=O)c1ccc(Cl)cc1)C2 [TERUTROBAN] , test system: U2OS
Marked response: 100%

Exam item: # return Population Normal (%) for OC(c1ccc(-c2ccc(CN3CCN(Cc4ccncc4)CC3)cc2)c(F)c1)(C(F)(F)F)C(F)(F)F , test system: U2OS
Marked response: 100%

Exam item: # return Population Normal (%) for CC1=C(C)C(=O)C(C(C)(C)CC(=O)N(CCCCSC[C@H]2O[C@@H](n3cnc4c(N)ncnc43)[C@H](O)[C@@H]2O)Cc2cccc(-c3ccc(Cl)cc3)c2)=C(C)C1=O , test system: U2OS
Marked response: 100%

Exam item: # return Population Normal (%) for COc1cc(Nc2cnc(C#N)c(O[C@H](C)CN(C)C)n2)ncc1-c1cnn(C)c1 , test system: U2OS
Marked response: 100%

====

Tested on: HEK-293T
Assay Protocol: Multiplex assay against HEK293T
Type: toxicity, cell-based
Applied Conditions: human, 24 h, 10 µM, compound concentration 10 uM, number of replicates 2
Parameter: Population Fragmented Nuclei (%)
# unit: % | format: bare number

Exam item: Answer with reported Population Fragmented Nuclei (%) of C[C@@H](OC[C@@]1(c2ccccc2)CC[C@]2(CCC(=O)N2)CN1)c1cc(C(F)(F)F)cc(C(F)(F)F)c1 [ROLAPITANT]
Marked response: 7

Exam item: Answer with reported Population Fragmented Nuclei (%) of CCCCOc1c(C(=O)c2c(F)cc(C)cc2F)c[nH]c2nncc1-2
Marked response: 5

Exam item: Answer with reported Population Fragmented Nuclei (%) of COc1ncc(-c2cc(-c3ncc(CN4C[C@@H](C)O[C@@H](C)C4)o3)c3cn[nH]c3c2)cc1NS(C)(=O)=O
Marked response: 4

Exam item: Answer with reported Population Fragmented Nuclei (%) of CN(C)CCN(Cc1ccc(-c2ccc(CNCCc3ccccc3)cc2)cc1)C(=O)CCC1CCCC1.Cl.Cl
Marked response: 5

Exam item: Answer with reported Population Fragmented Nuclei (%) of COCCNC1CCC(Nc2cc(-c3csc(NCC4(C#N)CCOCC4)n3)c(Cl)cn2)CC1 (stereo not drawn)
Marked response: 3

Exam item: Answer with reported Population Fragmented Nuclei (%) of COc1ccc(NC(=O)c2ccc(-c3ccc(-c4noc(C)n4)cc3C)cc2)cc1OCCN(C)C.Cl
Marked response: 6

Exam item: Answer with reported Population Fragmented Nuclei (%) of CC1=C(C)C(=O)C(C(C)(C)CC(=O)N(CCCCSC[C@H]2O[C@@H](n3cnc4c(N)ncnc43)[C@H](O)[C@@H]2O)Cc2cccc(-c3ccc(Cl)cc3)c2)=C(C)C1=O
Marked response: 3

Exam item: Answer with reported Population Fragmented Nuclei (%) of CNC(=O)c1c(F)cccc1Nc1nc(Nc2cc3c(cc2OC)CCN3C(=O)CN(C)C)nc2[nH]ccc12
Marked response: 6

====

Tested on: HEK-293T
Assay Protocol: Multiplex assay against HEK293T
Type: toxicity, cell-based
Applied Conditions: human, 12 h, 1 µM, compound concentration 1 uM, number of replicates 2
Parameter: Population Healthy Nuclei (%)
# unit: % | format: bare number

Exam item: Answer with reported Population Healthy Nuclei (%) of CN[C@@H]1CC[C@@H](c2ccc(Cl)c(Cl)c2)c2ccccc21.Cl
Marked response: 84

Exam item: Answer with reported Population Healthy Nuclei (%) of N=C(N)NCCC[C@H](NC(=O)COCC(c1ccccc1)c1ccccc1)C(=O)O.O=C(O)C(F)(F)F
Marked response: 85

Exam item: Answer with reported Population Healthy Nuclei (%) of CS(=O)(=O)c1ccc(C(=O)Nc2cccc(COc3ccc(Br)cc3CN3CCC[C@H](O)C3)c2)c(Cl)c1.O=CO
Marked response: 82

Exam item: Answer with reported Population Healthy Nuclei (%) of C=CC(=O)Nc1ccc2[nH]c(=O)n(C3CCN(Cc4ccc(-c5ccc6c(c5)NC(=O)CO6)cc4)CC3)c2c1
Marked response: 85

Exam item: Answer with reported Population Healthy Nuclei (%) of COc1nc2ccc([C@@](O)(c3ccc(Cl)cc3)c3cncn3C)cc2c(Cl)c1Cc1ccc(-n2cccn2)cc1
Marked response: 81

Exam item: Answer with reported Population Healthy Nuclei (%) of CS(=O)(=O)c1ccc(NC(=O)c2cccc(COc3ccc(Br)cc3CNCCO)c2)c(Cl)c1.O=CO
Marked response: 83

Exam item: Answer with reported Population Healthy Nuclei (%) of Cc1ccc2c(c1CCC(=O)O)CC[C@@H](NS(=O)(=O)c1ccc(Cl)cc1)C2
Marked response: 81

Exam item: Answer with reported Population Healthy Nuclei (%) of Cc1cc(NC(=O)c2cccc(NC(=O)/C=C/CN(C)C)c2)ccc1Nc1nccc(-c2cccnc2)n1
Marked response: 87

====

System: Fibroblast
Assay Protocol: Multiplex assay against human fibroblast
Assay type: toxicity, cell-based
Applied Conditions: 48 h, 1 µM, compound concentration 1 uM, number of replicates 2
In plain terms, low Population Membrane Permeable-Phenotype (%), meaning strictly below 4%, gives Condition met, and everything else gives Condition not met.

Exam item: Regarding CN(C)CCN(Cc1ccc(-c2ccc(CNCCc3ccccc3)cc2)cc1)C(=O)CCC1CCCC1.Cl.Cl , kindly confirm whether its Population Membrane Permeable-Phenotype (%) is beneath 4%.
Marked response: Condition met

Exam item: Regarding COCCNC1CCC(Nc2cc(-c3csc(NCC4(C#N)CCOCC4)n3)c(Cl)cn2)CC1 (configuration not stated) , kindly confirm whether its Population Membrane Permeable-Phenotype (%) is beneath 4%.
Marked response: Condition not met

Exam item: Regarding Cc1ccc(C(=O)Nc2cc(N3CCN(C)CC3)cc(C(F)(F)F)c2)cc1-n1cc(-c2cnn(C)c2C)nn1.Cl , kindly confirm whether its Population Membrane Permeable-Phenotype (%) is beneath 4%.
Marked response: Condition met

Exam item: Regarding Cc1cc(C2CCCNC2)ccc1Nc1ncc(Br)c(NCc2cccc3c2C(C)(C)C(=O)N3)n1 (configuration not stated) , kindly confirm whether its Population Membrane Permeable-Phenotype (%) is beneath 4%.
Marked response: Condition met

Exam item: Regarding COc1ccc(-c2cc3c(C)nc(N)nc3n([C@H]3CC[C@H](OCCO)CC3)c2=O)cn1 , kindly confirm whether its Population Membrane Permeable-Phenotype (%) is beneath 4%.
Marked response: Condition not met

Exam item: Regarding CN(C)CC#Cc1ccc2[nH]c3c(c2c1)-c1nc(N)ncc1CCC3 , kindly confirm whether its Population Membrane Permeable-Phenotype (%) is beneath 4%.
Marked response: Condition met

====

Tested on: Fibroblast
Assay Protocol: Multiplex assay against human fibroblast
Type: toxicity, cell-based
Applied Conditions: 48 h, 10 µM, compound concentration 10 uM, number of replicates 2
Parameter: Population Mitotic Cells (%)
Kindly format the answer as number then unit.

Exam item: Answer with reported Population Mitotic Cells (%) of COc1ccc(NC(=O)c2ccc(-c3ccc(-c4noc(C)n4)cc3C)cc2)cc1OCCN(C)C.Cl
Marked response: 4%

Exam item: Answer with reported Population Mitotic Cells (%) of COc1ccc(-c2cc3c(C)nc(N)nc3n([C@H]3CC[C@H](OCCO)CC3)c2=O)cn1
Marked response: 33%

Exam item: Answer with reported Population Mitotic Cells (%) of CN(C)C/C=C/C(=O)Nc1ccc(C(=O)Nc2cccc(Nc3ncc(Cl)c(-c4c[nH]c5ccccc45)n3)c2)cc1
Marked response: 6%

Exam item: Answer with reported Population Mitotic Cells (%) of Cn1ncc(NC(=O)c2nc(-c3c(F)cccc3F)sc2N)c1N1CC[C@@H](N)[C@H](F)CC1
Marked response: 45%

Exam item: Answer with reported Population Mitotic Cells (%) of COc1cccc(Cn2cc(C(=O)Nc3ccc(C)c(S(=O)(=O)N4CCOCC4)c3)c(-c3ccc(C)cc3)n2)c1
Marked response: 25%

Exam item: Answer with reported Population Mitotic Cells (%) of COc1nc2ccc([C@@](O)(c3ccc(Cl)cc3)c3cncn3C)cc2c(Cl)c1Cc1ccc(-n2cccn2)cc1
Marked response: 12%

Sourced from ChEMBL document CHEMBL5303300
